Source of measurements: PubChem BioAssay AID1963442

Entries and their measured viability, T/C follow.
# Test system: MPNST complex spheroid with HUVEC/MSC, growth, % test/control
# Test: Anticancer human tumor MPNST cell line growth inhibition [Asc];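 also: compounds left on spheroids for seven days before reading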
# Measurement context: second compound 10 µM; first compound 10 µM; stronger effect = lower value
Measure name: viability, T/C (%)

Compound	Quantitative result
C#Cc1c(F)ccc2cc(O)cc(-c3ncc4c(N5CC6CCC(C5)N6)nc(OCC56CCCN5CC(F)C6)nc4c3F)c12 (stereo not drawn) + Cc1c(S(C)(=O)=O)c(-c2cc(F)cc(N3CCN(c4ccc(NS(=O)(=O)c5ccc(NC(CCN6CCC(C(=O)OCCCP(=O)(O)O)CC6)CSc6ccccc6)c(S(=O)(=O)C(F)(F)F)c5)cc4)CC3)c2)c(-c2ccc(Cl)cc2)n1C(C)C	124
O=C(c1cc(Cc2n[nH]c(=O)c3ccccc23)ccc1F)N1CCN(C(=O)C2CC2)CC1 + Cc1c(S(C)(=O)=O)c(-c2cc(F)cc(N3CCN(c4ccc(NS(=O)(=O)c5ccc(NC(CCN6CCC(C(=O)OCCCP(=O)(O)O)CC6)CSc6ccccc6)c(S(=O)(=O)C(F)(F)F)c5)cc4)CC3)c2)c(-c2ccc(Cl)cc2)n1C(C)C	49
C=CC(=O)N1CCN(c2nc(=O)n(-c3c(C)ccnc3C(C)C)c3nc(-c4c(O)cccc4F)c(F)cc23)C(C)C1 (stereo not drawn) + Cc1c(S(C)(=O)=O)c(-c2cc(F)cc(N3CCN(c4ccc(NS(=O)(=O)c5ccc(NC(CCN6CCC(C(=O)OCCCP(=O)(O)O)CC6)CSc6ccccc6)c(S(=O)(=O)C(F)(F)F)c5)cc4)CC3)c2)c(-c2ccc(Cl)cc2)n1C(C)C	115
